assayedSystem: Type 1 fimbrin D-mannose specific adhesin (Escherichia coli K-12) (UniProt P08191)
testProtocol: Displacement of TM-PAA polymer from Escherichia coli FimH-CRD-Th-6-His expressed in Escherichia coli HM125 at <1 uM by competitive binding assay
Active and inactive are the calls of the source. No cut-off for these calls is given here.
endpoint: inhibition

{"columns": ["compound", "reportedResult"],
 "data": [
  ["OC[C@H]1O[C@H](OC(COc2ccc3ccccc3c2)COc2ccc3ccccc3c2)[C@@H](O)[C@@H](O)[C@@H]1O", "inactive"],
  ["OC[C@H]1O[C@H](OCC(COc2cccc3ccccc23)Oc2cccc3ccccc23)[C@@H](O)[C@@H](O)[C@@H]1O (stereo partly specified)", "inactive"],
  ["COc1ccc(OCC(COc2ccc(OC)cc2)O[C@H]2O[C@H](CO)[C@@H](O)[C@H](O)[C@@H]2O)cc1", "inactive"],
  ["O=C(Cc1ccc([N+](=O)[O-])cc1)NCC(CNC(=O)Cc1ccc([N+](=O)[O-])cc1)O[C@H]1O[C@H](CO)[C@@H](O)[C@H](O)[C@@H]1O", "inactive"],
  ["O=C(Cc1ccccc1)NCC(CNC(=O)Cc1ccccc1)O[C@H]1O[C@H](CO)[C@@H](O)[C@H](O)[C@@H]1O", "inactive"]
]}

Now look at this entry.
Which inhibition is reported for this compound? OC[C@H]1O[C@H](OCC(COc2ccc3ccccc3c2)Oc2ccc3ccccc3c2)[C@@H](O)[C@@H](O)[C@@H]1O (stereo partly specified) inactive

###

assayedSystem: Type 1 fimbrin D-mannose specific adhesin (Escherichia coli K-12) (UniProt P08191)
testProtocol: Inhibition of Escherichia coli FimH relative to methyl alpha-D-mannopyranoside
endpoint: Ratio
Form field (numeric): enter value without unit.

GET /values?readout=Ratio&item= `O=[N+]([O-])c1ccc(CCO[C@H]2O[C@H](CO)[C@@H](O)[C@H](O)[C@@H]2O)cc1` 85

Follow-up entry: `CCOc1c(Nc2ccc(O[C@H]3O[C@H](CO)[C@@H](O)[C@H](O)[C@@H]3O)c(Cl)c2)c(=O)c1=O` 6900

Moving on to the next compound: `O=[N+]([O-])c1ccc(O[C@H]2O[C@H](CO)[C@@H](O)[C@H](O)[C@@H]2O)c(Cl)c1` 717

Note, next up: `OCC#Cc1ccc(O[C@H]2O[C@H](CO)[C@@H](O)[C@H](O)[C@@H]2O)cc1` 3380

###

// each record: one item and its IC50 for Type 1 fimbrin D-mannose specific adhesin (Escherichia coli K-12)
Write it as a number; the unit nM goes unstated.

Identify the measured IC50 of `O=C(NCC(CNC(=O)c1ccc[nH]1)O[C@H]1O[C@H](CO)[C@@H](O)[C@H](O)[C@@H]1O)c1ccc[nH]1` for Type 1 fimbrin D-mannose specific adhesin (Escherichia coli K-12). 607

# repeat for O=C(O)Cc1ccc(OCC(COc2cccc3ccccc23)O[C@H]2O[C@H](CO)[C@@H](O)[C@H](O)[C@@H]2O)cc1 (some centres undefined) 232

Could you do the same for `O=[N+]([O-])c1ccc(OCC(COc2ccc([N+](=O)[O-])cc2)O[C@H]2O[C@H](CO)[C@@H](O)[C@H](O)[C@@H]2O)cc1` , please? 804

And for COc1ccc2ccc(OCC(CO[C@H]3O[C@H](CO)[C@@H](O)[C@H](O)[C@@H]3O)Oc3ccc4ccc(OC)cc4c3)cc2c1 (some centres undefined) ? 875

###

assayedSystem: Type 1 fimbrin D-mannose specific adhesin (Escherichia coli K-12, UniProt P08191)
Sequence (P08191 whole entry): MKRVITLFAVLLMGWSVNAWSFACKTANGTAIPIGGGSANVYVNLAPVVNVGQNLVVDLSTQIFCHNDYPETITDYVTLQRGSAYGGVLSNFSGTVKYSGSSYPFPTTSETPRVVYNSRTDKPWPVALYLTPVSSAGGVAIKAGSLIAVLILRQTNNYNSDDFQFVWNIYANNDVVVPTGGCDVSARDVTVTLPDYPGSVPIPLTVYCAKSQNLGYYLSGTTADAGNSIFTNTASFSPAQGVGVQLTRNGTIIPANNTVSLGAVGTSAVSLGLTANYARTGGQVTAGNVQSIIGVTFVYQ
endpoint: Kd (µM)
Give just the numeric value; µM need not be written.

Entry OC[C@H]1OC(O)[C@@H](O)[C@@H](O)[C@@H]1O (stereo partly specified) , system Type 1 fimbrin D-mannose specific adhesin (Escherichia coli K-12, UniProt P08191): what Kd was measured? 2.3

###

assayedSystem: Type 1 fimbrin D-mannose specific adhesin (Escherichia coli K-12)
testProtocol: Displacement of TM-PAA polymer from Escherichia coli FimH-CRD-Th-6-His expressed in Escherichia coli HM125 by competitive binding assay relative to heptyl alpha-D-mannopyranoside
Response field label takes 1.0 when Ratio is strictly below 0.3 and 0.0 in all other cases.

Hello, is Ratio of the following molecule strictly smaller than 0.3? COC(=O)c1ccc2ccc(OCC(COc3ccc4ccc(OC)cc4c3)O[C@H]3O[C@H](CO)[C@@H](O)[C@H](O)[C@@H]3O)cc2c1 (stereo partly specified) 1.0

Would you kindly repeat that for COc1ccc(OC(COc2ccc(O)cc2)CO[C@H]2O[C@H](CO)[C@@H](O)[C@H](O)[C@@H]2O)cc1 (stereo partly specified) ? 1.0

Try this molecule next: O=C(O)c1ccc(OCC(COc2cccc3ccccc23)O[C@H]2O[C@H](CO)[C@@H](O)[C@H](O)[C@@H]2O)cc1 (stereo partly specified) 1.0

Repeat for the following molecule: O=C(O)Cc1ccc(OCC(COc2cccc3ccccc23)O[C@H]2O[C@H](CO)[C@@H](O)[C@H](O)[C@@H]2O)cc1 (stereo partly specified) 1.0

// same read-out, input: COc1ccc2ccc(OCC(COc3ccc4ccc(C(=O)O)cc4c3)O[C@H]3O[C@H](CO)[C@@H](O)[C@H](O)[C@@H]3O)cc2c1 (stereo partly specified) 0.0

Now consider CCOCC(COc1ccc2ccccc2c1)O[C@H]1O[C@H](CO)[C@@H](O)[C@H](O)[C@@H]1O (stereo partly specified) and answer again. 1.0

Provenance of the data: ChEMBL document CHEMBL3596167
